# reported pKd; entries follow
- tgt: CaM (Bos taurus)
- Construct: made in house; host or cells: E. coli BL21 (DE3)
- assay.info: Pull-down assay with immobilized protein and LSM libraries
- Type: binding, bovine
- condition.context: H12 library; 1:2 stoichiometry assumed; read-out: Surface mapping KD (apparent)
Scale note: pKd = -log10(concentration in M).

[
  {
    "molecule": "CC(C)C[C@@H](CC(=O)N[C@H]1CCC[C@@H]1C(=O)N[C@H]1CCC[C@@H]1C(N)=O)NC(=O)[C@H]1CCC[C@@H]1NC(=O)[C@H]1CCC[C@@H]1NC(=O)C[C@H](CCCCN)NC(=O)[C@H]1CCC[C@@H]1NC(=O)[C@H]1CCC[C@@H]1N [H12 KL]",
    "assay.metric": "pKd",
    "numeric.result": 3.49
  }
]

Let us examine a further case.
Considering CSCC[C@@H](CC(=O)N[C@H]1CCC[C@@H]1C(=O)N[C@H]1CCC[C@@H]1C(N)=O)NC(=O)[C@H]1CCC[C@@H]1NC(=O)[C@H]1CCC[C@@H]1NC(=O)C[C@H](CC(N)=O)NC(=O)[C@H]1CCC[C@@H]1NC(=O)[C@H]1CCC[C@@H]1N [H12 NM] , its pKd with CaM (Bos taurus) was recorded as 3.42
